- Assay text: Microsomal metabolic stability, rat
- Assay type: in vitro ADME
Assignment: determine reported Metabolic stability (% remaining at 30 min) Rat for the given compounds.
Numeric only. Scale: %

Return reported Metabolic stability (% remaining at 30 min) Rat; argument: COc1ccc(CCN(Cc2cccc(N3CCC(C(=O)O)C3)c2)c2nc3cccc(F)c3s2)cc1 (stereo not shown)
71

Fill in: Metabolic stability (% remaining at 30 min) Rat of COc1ccc(CCN(Cc2ccc(N3CCC(C(=O)O)C3)cc2)c2nc3cccc(F)c3s2)cc1 (stereo not shown) is ___
90

Report Metabolic stability (% remaining at 30 min) Rat for COc1ccc(CCN(Cc2ccc(C#CC(=O)O)cc2)c2nc3cccc(F)c3s2)cc1 [Compound C0001, reference compound] please.
50

Which Metabolic stability (% remaining at 30 min) Rat reading was recorded for the compound COc1ccc(CCN(Cc2ccc(N3CC[C@H](C(=O)O)C3)cc2)c2nc3cccc(F)c3s2)cc1 ?
77

----------
Record form. Attribute: half-life. Fill in for each entry.
- Assay text: Rat pharmacokinetics (po and iv) and bioavailability
- Assay type: in vivo
- Condition set: in vivo, 30 mg/kg, po, 30 mpk
Please reply with the bare figure in h and do not write the unit itself.

Record request: half-life value, item COc1ccc(CCN(Cc2ccc(C#CC(=O)O)cc2)c2nc3cccc(F)c3s2)cc1 [Compound C0001, reference compound]
2.67

Look at this molecule and give its reported half-life. COc1ccc(CCN(Cc2ccc(N3CC[C@H](C(=O)O)C3)cc2)c2nc3cccc(F)c3s2)cc1 [Compound 25]
0.76

Could you share which half-life value was measured for COc1ccc(CCN(Cc2ccc(N3CC[C@H](C(=O)O)C3)cc2)c2nc3c(F)c(F)cc(F)c3s2)cc1 [Compound 43] ?
1

Report half-life for COc1ccc(CCN(c2nc3cccc(F)c3s2)C(C)c2cccc(N3CC[C@@H](C(=O)O)C3)c2)cc1 (stereo partly shown) [Compound 41] please.
2.13

----------
- Assay text: Rat pharmacokinetics (po and iv) and bioavailability
- Assay type: in vivo
- Condition set: in vivo, 10 mg/kg, po, 10 mpk
Test readout: Cmax (ng/mL)
Provide only the numeric value, understood in ng/mL.

What does the data say about its Cmax? Entry: COc1ccc(CCN(Cc2ccc(C#CC(=O)O)cc2)c2nc3cccc(F)c3s2)cc1 [Compound C0001, reference compound]
2020

State the recorded Cmax for this entry: COc1ccc(CCN(Cc2ccc(N3CC[C@H](C(=O)O)C3)cc2)c2nc3cccc(F)c3s2)cc1
1750

// returns reported Cmax for input COc1ccc(CCN(c2nc3cccc(F)c3s2)C(C)c2ccc(N3CC[C@H](C(=O)O)C3)cc2)cc1 (some centres unmarked)
240

Endpoint output: Cmax of COc1ccc(CCN(Cc2ccc(N3CC[C@H](C(=O)O)C3)cc2)c2nc3c(F)c(F)cc(F)c3s2)cc1 . Value?
3320

Sample COc1ccc(CCN(c2nc3cccc(F)c3s2)C(C)c2cccc(N3CC[C@@H](C(=O)O)C3)c2)cc1 (some centres unmarked) — what was its Cmax?
4230

----------
Answer each item with its documented inhibition at 10 µM.
- Target system: KARS1 and 37LR (Homo sapiens)
- Construct: KARS1 (1-207aa)
- Sequence (Q15046 1-207): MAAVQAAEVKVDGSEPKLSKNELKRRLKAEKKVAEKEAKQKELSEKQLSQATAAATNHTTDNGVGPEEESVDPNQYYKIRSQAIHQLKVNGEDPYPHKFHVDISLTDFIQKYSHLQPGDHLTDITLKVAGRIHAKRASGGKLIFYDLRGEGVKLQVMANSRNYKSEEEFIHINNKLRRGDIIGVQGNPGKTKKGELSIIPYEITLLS
- Assay text: Cell-free ELISA of KARS1 and 37LR (laminin receptor) binding
- Condition set: 10 µM compound, 1 hour, plate coated with KARS1 (1-207aa), LRF
Give the quantity in %, number only.

Which value of inhibition at 10 µM has been reported for COc1ccc(CCN(Cc2ccc(N3CC[C@H](C(=O)O)C3)cc2)c2nc3c(F)c(F)cc(F)c3s2)cc1 [Compound 43] in the records?
67.1

Give its inhibition at 10 µM value. Item: COc1ccc(CCN(Cc2ccc(C#CC(=O)O)cc2)c2nc3cccc(F)c3s2)cc1 [Compound C0001, reference compound]
64.5

What value of inhibition at 10 µM has been recorded for this entry: COc1ccc(CCN(Cc2ccc(-c3ccc(C(=O)O)o3)cc2)c2nc3cccc(F)c3s2)cc1 [Compound 26]
78.4

Record request: inhibition at 10 µM value, item CNC(=O)C#Cc1ccc(CN(CCc2ccc(OC)cc2)c2nc3cccc(F)c3s2)cc1 [Compound 4]
13.8

# input molecule: COc1ccc(CCN(Cc2nc3ccc(C(=O)O)cc3n2C)c2nc3cccc(F)c3s2)cc1 [Compound 27] ; wanted: its inhibition at 10 µM
14

Form field: reported inhibition at 10 µM of COc1ccc(CCN(Cc2ccc(C(=O)N3CCC[C@H]3C(=O)O)cc2)c2nc3cccc(F)c3s2)cc1 [Compound 14]
100

# lookup: inhibition at 10 µM of COc1ccc(CCN(c2nc3cccc(F)c3s2)C(C)c2ccc(N3CC[C@H](C(=O)O)C3)cc2)cc1 (stereo partly shown) [Compound 42]
65.6

Consider the molecule shown here: COc1ccc(CCN(Cc2ccc(CCC(=O)O)cc2)c2nc3cccc(F)c3s2)cc1 [Compound 2] What is its recorded inhibition at 10 µM?
79.4

# query: inhibition at 10 µM of entry COc1ccc(CCN(Cc2ccc(C#C[Si](C)(C)C)cc2)c2ncc3ccn(C)c3n2)cc1 [Compound 10]
9.8

Return reported inhibition at 10 µM; argument: COc1ccc(CCN(c2nc3cccc(F)c3s2)C(C)c2cccc(N3CC[C@@H](C(=O)O)C3)c2)cc1 (stereo partly shown) [Compound 41]
69.6

Fill in the blank: the reported inhibition at 10 µM of COc1ccc(CCN(Cc2ccc(Br)cc2)c2ncc3ccn(C)c3n2)cc1 [Compound 7] is ____.
9.5

What value of inhibition at 10 µM has been recorded for this entry: CCN(CC)C(=O)C#Cc1ccc(CN(CCc2ccc(OC)cc2)c2nc3cccc(F)c3s2)cc1 [Compound 3]
4.7

Requested field: inhibition at 10 µM. Item: COc1ccc(CCN(Cc2cccc(N3CC[C@H](C(=O)O)C3)c2)c2nc3cccc(F)c3s2)cc1 [Compound 22]
52

Look up inhibition at 10 µM: COc1ccc(CCN(Cc2cccc(N3CCC[C@H]3C(=O)O)c2)c2nc3cccc(F)c3s2)cc1 [Compound 20]
3.4

Entry COc1ccc(CCN(Cc2ccc(N3CC[C@H](C(=O)O)C3)cc2)c2nc3cccc(F)c3s2)cc1 [Compound 25] has what inhibition at 10 µM?
69.2

So what's the measured inhibition at 10 µM for this one? COc1ccc(CCN(Cc2ccc3c(c2)CN(CC(=O)O)C3)c2nc3cccc(F)c3s2)cc1 [Compound 32]
-27.9
